These measurements were taken from patent US11919901B2.

MEASUREMENT_TARGET: Menin-MLL (Homo sapiens (Human))
PROCEDURE_DETAILS: Determination of binding constants (Ki) to Menin-MLL (HTRF)
CONDITION: HTRF; 0.25 nM H-FL-Menin, 3.2 nM FITC-MLL-4-43, 24 hr incubation; read-out: Menin-MLL Ki HTRF Assay: Ki
pKi: −log10 of the molar value.
VALUE_KIND: pKi

Lab note: measured pKi of "C[C@@H]1COC[C@@H](C)N1C(=O)c1cc(F)ccc1Oc1cncnc1N1CC2(CCN(C[C@@H]3CC[C@@H](NS(=O)(=O)C4CC4)CO3)CC2)C1" was > 9.00

Lab note: measured pKi of "CCN(C(=O)c1cc(F)ccc1Oc1cncnc1N1CC2(CCN(C[C@@H]3CC[C@@H](NS(=O)(=O)CC)CO3)CC2)C1)C(C)C" was > 9.00

Lab note: measured pKi of "CCN(C(=O)c1cc(F)ccc1Oc1cncnc1N1CC2(CCN(C[C@@H]3CC[C@@H](NS(=O)(=O)c4cccc(Cl)c4)CO3)CC2)C1)C(C)C" was > 9.00

Lab note: measured pKi of "Cc1nc(S(=O)(=O)N[C@@H]2CC[C@@H](CN3CCC4(CC3)CN(c3ncncc3Oc3ccc(F)cc3C(=O)N(C)C(C)C)C4)OC2)cs1" was > 9.00

Lab note: measured pKi of "CC(C)N(CC(F)F)C(=O)c1cc(F)ccc1Oc1nncnc1N1CC2(CCN(C[C@@H]3CC[C@@H](NS(=O)(=O)C4CC4)CO3)CC2)C1" was > 9.00

Lab note: measured pKi of "CCN(C(=O)c1cc(F)ccc1Oc1cncnc1N1CC2(CCN(C[C@@H]3CC[C@@H](NS(=O)(=O)c4cnn(C)c4)CO3)CC2)C1)C(C)C" was > 9.00

---

MEASUREMENT_TARGET: hERG (Homo sapiens (Human), UniProt Q12809)
Sequence (Q12809 whole entry): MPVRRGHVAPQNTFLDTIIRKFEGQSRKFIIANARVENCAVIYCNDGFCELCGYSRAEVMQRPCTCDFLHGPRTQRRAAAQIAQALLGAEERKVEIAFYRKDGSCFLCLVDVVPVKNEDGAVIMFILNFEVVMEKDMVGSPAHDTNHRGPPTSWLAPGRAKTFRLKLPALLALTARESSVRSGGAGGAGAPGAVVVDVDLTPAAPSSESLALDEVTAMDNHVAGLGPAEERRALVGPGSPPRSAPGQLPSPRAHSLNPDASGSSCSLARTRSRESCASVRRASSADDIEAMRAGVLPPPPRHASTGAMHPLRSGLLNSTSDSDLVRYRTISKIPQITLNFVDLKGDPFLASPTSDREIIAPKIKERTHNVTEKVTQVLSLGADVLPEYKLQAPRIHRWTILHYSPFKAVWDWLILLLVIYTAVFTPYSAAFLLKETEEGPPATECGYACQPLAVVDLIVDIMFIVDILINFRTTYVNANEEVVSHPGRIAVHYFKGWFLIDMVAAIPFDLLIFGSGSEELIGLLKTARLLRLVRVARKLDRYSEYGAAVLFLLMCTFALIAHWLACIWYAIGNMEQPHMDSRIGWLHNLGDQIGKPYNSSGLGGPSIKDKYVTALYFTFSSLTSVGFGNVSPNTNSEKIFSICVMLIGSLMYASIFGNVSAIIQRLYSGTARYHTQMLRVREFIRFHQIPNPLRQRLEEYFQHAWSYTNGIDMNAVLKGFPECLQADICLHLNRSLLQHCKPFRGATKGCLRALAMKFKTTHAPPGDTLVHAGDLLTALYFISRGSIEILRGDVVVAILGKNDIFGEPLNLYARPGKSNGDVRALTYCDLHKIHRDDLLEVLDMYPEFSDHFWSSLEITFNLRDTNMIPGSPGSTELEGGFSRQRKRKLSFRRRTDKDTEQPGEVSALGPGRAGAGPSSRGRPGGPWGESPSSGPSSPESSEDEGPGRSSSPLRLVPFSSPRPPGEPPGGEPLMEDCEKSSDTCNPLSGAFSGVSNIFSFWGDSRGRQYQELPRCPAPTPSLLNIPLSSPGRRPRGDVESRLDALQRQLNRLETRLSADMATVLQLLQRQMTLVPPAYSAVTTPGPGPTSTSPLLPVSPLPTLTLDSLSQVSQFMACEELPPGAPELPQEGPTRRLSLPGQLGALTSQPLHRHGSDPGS
PROCEDURE_DETAILS: Patch clamp assay (hERG tail currents, whole-cell)
Format: cell-based
CONDITION: 10 μM compound, hERG transfected HEK 293 cells
VALUE_KIND: hERG % Remaining 10 μM

Guide cases for hERG % Remaining 10 μM, answers given:
INSERT INTO results (molecule, value_kind, assay_value) VALUES
  ('CC(C)N(C(=O)c1cc(F)ccc1Oc1cncnc1N1CC2(CCN(C[C@@H]3CC[C@@H](NS(=O)(=O)N(C)C)CO3)CC2)C1)[C@H]1CCOC1 [Compound 177]', 'hERG % Remaining 10 μM', '+++ (“+++” means ≥66%)'),
  ('CC(C)N(C(=O)c1cc(F)ccc1Oc1cncnc1N1CC2(CCN(C[C@@H]3CC[C@@H](NS(=O)(=O)C4COC4)CO3)CC2)C1)C(C)C [Compound 16]', 'hERG % Remaining 10 μM', '+++ (“+++” means ≥66%)'),
  ('CCN(C(=O)c1cc(F)ccc1Oc1cncnc1N1CC2(CCN(C[C@@H]3CC[C@@H](NS(=O)(=O)C4CCC4)CO3)CC2)C1)C(C)C [Compound 6]', 'hERG % Remaining 10 μM', '+++ (“+++” means ≥66%)'),
  ('CC(C)N(C(=O)c1cc(F)ccc1Oc1cncnc1N1CC2(CCN(C[C@@H]3CC[C@@H](NS(C)(=O)=O)CO3)CC2)C1)C(C)C [Compound 12]', 'hERG % Remaining 10 μM', '+++ (“+++” means ≥66%)'),
  ('CCN(C(=O)c1cc(F)ccc1Oc1cncnc1N1CC2(CCN(C[C@@H]3CC[C@@H](NS(=O)(=O)c4cccnc4)CO3)CC2)C1)C(C)C [Compound 63]', 'hERG % Remaining 10 μM', '+++ (“+++” means ≥66%)');

For the molecule CC(C)N(CCC#N)C(=O)c1cc(F)ccc1Oc1cncnc1N1CC2(CCN(C[C@@H]3CC[C@@H](NS(=O)(=O)c4ccccc4)CO3)CC2)C1 [Compound 136] , the measured hERG % Remaining 10 μM on hERG (Homo sapiens (Human), UniProt Q12809) was +++ (“+++” means ≥66%)

For the molecule CCS(=O)(=O)N[C@@H]1CC[C@@H](CN2CCC3(CC2)CN(c2ncncc2Oc2ccc(F)cc2C(=O)N(C(C)C)[C@H]2CCOC2)C3)OC1 [Compound 33] , the measured hERG % Remaining 10 μM on hERG (Homo sapiens (Human), UniProt Q12809) was +++ (“+++” means ≥66%)

For the molecule CC(C)N(C(=O)c1cc(F)ccc1Oc1cncnc1N1CC2(CCN(C[C@@H]3CC[C@@H](NS(=O)(=O)C(C)C)CO3)CC2)C1)C(C)C [Compound 14] , the measured hERG % Remaining 10 μM on hERG (Homo sapiens (Human), UniProt Q12809) was +++ (“+++” means ≥66%)

For the molecule CCS(=O)(=O)N[C@@H]1CC[C@@H](CN2CCC3(CC2)CN(c2ncncc2Oc2ccc(F)cc2C(=O)N(C(C)C)C2CC(F)C2)C3)OC1 (stereo partly drawn) [Compound 244] , the measured hERG % Remaining 10 μM on hERG (Homo sapiens (Human), UniProt Q12809) was +++ (“+++” means ≥66%)

---

MEASUREMENT_TARGET: human Menin and N-terminal portion of human MLL (amino acids 4-43) (Homo sapiens (Human), UniProt O00255)
Sequence (O00255 whole entry, the tested form may be a part): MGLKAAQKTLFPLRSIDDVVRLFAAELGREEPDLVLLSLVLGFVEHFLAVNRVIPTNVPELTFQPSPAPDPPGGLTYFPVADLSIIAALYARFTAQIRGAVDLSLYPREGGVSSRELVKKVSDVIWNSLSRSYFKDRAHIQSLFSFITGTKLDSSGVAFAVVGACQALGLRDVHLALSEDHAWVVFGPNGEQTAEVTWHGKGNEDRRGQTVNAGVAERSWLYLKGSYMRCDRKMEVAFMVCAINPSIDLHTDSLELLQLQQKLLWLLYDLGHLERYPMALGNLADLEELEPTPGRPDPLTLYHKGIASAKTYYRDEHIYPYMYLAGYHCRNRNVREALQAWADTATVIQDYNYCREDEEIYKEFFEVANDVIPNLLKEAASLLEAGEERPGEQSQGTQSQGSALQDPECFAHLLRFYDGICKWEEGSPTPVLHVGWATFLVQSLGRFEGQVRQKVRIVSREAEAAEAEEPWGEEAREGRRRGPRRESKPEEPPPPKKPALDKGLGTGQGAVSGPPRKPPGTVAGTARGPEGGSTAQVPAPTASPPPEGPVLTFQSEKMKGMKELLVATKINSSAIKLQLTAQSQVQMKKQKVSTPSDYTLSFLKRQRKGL
VALUE_KIND: IC50

Lab note: measured IC50 of CCN(C(=O)c1cc(F)ccc1Oc1cncnc1N1CC2(CCN(C[C@H]3CC[C@H](NS(=O)(=O)CC)CO3)CC2)C1)C(C)C [Example 52] was < 100 nM

---

MEASUREMENT_TARGET: hERG (Homo sapiens (Human), UniProt Q12809)
PROCEDURE_DETAILS: Patch clamp assay (hERG tail currents, whole-cell)
Type: cell-based
CONDITION: 1 μM compound, hERG transfected HEK 293 cells
VALUE_KIND: hERG % Remaining 1 μM

INSERT INTO assay_data (molecule, assay_value) VALUES
  ('CC(C)N(C(=O)c1cc(F)ccc1Oc1cncnc1N1CC2(CCN(C[C@@H]3CC[C@@H](NS(=O)(=O)N(C)C)CO3)CC2)C1)C1CC1 [Compound 93]', '+++ (“+++” means ≥66%)'),
  ('CC(C)N(C(=O)c1cc(F)ccc1Oc1cncnc1N1CC2(CCN(C[C@@H]3CC[C@@H](NS(C)(=O)=O)CO3)CC2)C1)C(C)C [Compound 12]', '+++ (“+++” means ≥66%)'),
  ('CCS(=O)(=O)N[C@@H]1CC[C@@H](CN2CCC3(CC2)CN(c2ncncc2Oc2ccc(F)cc2C(=O)N(C(C)C)C(C)C)C3)OC1 [Compound 13]', '+++ (“+++” means ≥66%)'),
  ('CCS(=O)(=O)N[C@@H]1CC[C@@H](CN2CCC3(CC2)CN(c2ncncc2Oc2ccc(F)cc2C(=O)N(CC(F)F)C(C)C)C3)OC1 [Compound 34]', '+++ (“+++” means ≥66%)');

Please find the next molecule below.
Lab note: measured hERG % Remaining 1 μM of CCN(C(=O)c1cc(F)ccc1Oc1cncnc1N1CC2(CCN(C[C@H]3CC[C@H](NS(=O)(=O)CC)CC3)CC2)C1)C(C)C [SNDX-5613] was +++ (“+++” means ≥66%)

---

MEASUREMENT_TARGET: hERG (Homo sapiens (Human))
PROCEDURE_DETAILS: Patch clamp assay (hERG tail currents, whole-cell)
Type: cell-based
CONDITION: 30 μM compound, hERG transfected HEK 293 cells
VALUE_KIND: hERG % Remaining 30 μM

INSERT INTO results (smiles_repr, assay_value) VALUES
  ('CCS(=O)(=O)N[C@@H]1CC[C@@H](CN2CCC3(CC2)CN(c2ncncc2Oc2ccc(F)cc2C(=O)N(C(C)C)[C@H]2CCOC2)C3)OC1', '+++ (“+++” means ≥66%)'),
  ('CC(C)N(C)C(=O)c1cc(F)ccc1Oc1cncnc1N1CC2(CCN(C[C@@H]3CC[C@@H](NS(=O)(=O)N4CCC4)CO3)CC2)C1', '+++ (“+++” means ≥66%)'),
  ('CC(C)N(CC#N)C(=O)c1cc(F)ccc1Oc1cncnc1N1CC2(CCN(C[C@@H]3CC[C@@H](NS(=O)(=O)N4CCC4)CO3)CC2)C1', '+++ (“+++” means ≥66%)');

---

Field: pIC50. Provide a value for each of the compounds that follow.
Test system: MV4-11 cells
PROCEDURE_DETAILS: Cell proliferation assay MV4;11 (CellTiter-Glo, 72 hours)
Type: cell-based
CONDITION: Homo sapiens; MV4;11 leukemia cell line, 72 hours; read-out: MV4; 11 IC50
pIC50: −log10 of the molar value.

Lab note: measured pIC50 of "CC(C)N(C(=O)c1cc(F)ccc1Oc1cncnc1N1CC2(CCN(C[C@@H]3CC[C@@H](NS(=O)(=O)N(C)C(C)C)CO3)CC2)C1)C1CC(F)(F)C1" was > 7.00

Lab note: measured pIC50 of "CCS(=O)(=O)N[C@@H]1CC[C@@H](CN2CCC3(CC2)CN(c2ncncc2Oc2ccc(F)cc2C(=O)N(C(C)C)C(C)C)C3)OC1" was > 7.00

Lab note: measured pIC50 of "CC(C)N(C(=O)c1cc(F)ccc1Oc1cncnc1N1CC2(CCN(C[C@@H]3CC[C@@H](NC(=O)OC(C)(C)C)CO3)CC2)C1)C1CC1" was > 7.00
